molecular target: feline FcRn complex (FcRn-α subunit and β-microglobulin) (feline); test: SPR (Biacore), FcRn on SA chip, pH 6
pKd: −log10 of the molar value.

Binder	pKd
feline IgG1a mutant ID No. 253: S428M, S434L (antibody, part only; not given: Variable domains, not shown: another chain or arm of the molecule) constant: ASTTAPSVFPLAPSCGTTSGATVALACLVLGYFPEPVTVSWNSGALTSGVHTFPAVLQASGLYSLSSMVTVPSSRWLSDTFTCNVAHPPSNTKVDKTVRKTDHPPGPKPCDCPKCPPPEMLGGPSIFIFPPKPKDTLSISRTPEVTCLVVDLGPDDSDVQITWFVDNTQVYTAKTSPREEQFNSTYRVVSVLPILHQDWLKGKEFKCKVNSKSLPSPIERTISKAKGQPHEPQVYVLPPAQEELSRNKVSVTCLIKSFHPPDIAVEWEITGQPEPENNYRTTPPQLDSDGTYFVYSKLSVDRSHWQRGNTYTCSVMHEALHLHHTQKSLTQSPGK	8.10
feline IgG1a mutant ID No. 256: S428M, S434W (antibody, part only; not given: variable domains and light chain, not shown: another chain or arm of the molecule) constant: ASTTAPSVFPLAPSCGTTSGATVALACLVLGYFPEPVTVSWNSGALTSGVHTFPAVLQASGLYSLSSMVTVPSSRWLSDTFTCNVAHPPSNTKVDKTVRKTDHPPGPKPCDCPKCPPPEMLGGPSIFIFPPKPKDTLSISRTPEVTCLVVDLGPDDSDVQITWFVDNTQVYTAKTSPREEQFNSTYRVVSVLPILHQDWLKGKEFKCKVNSKSLPSPIERTISKAKGQPHEPQVYVLPPAQEELSRNKVSVTCLIKSFHPPDIAVEWEITGQPEPENNYRTTPPQLDSDGTYFVYSKLSVDRSHWQRGNTYTCSVMHEALHWHHTQKSLTQSPGK	9.71
